- TEST SYSTEM: Fab fragment of the humanized 5E5 antibody (h-5E5 Fab) (humanized from mouse | human) (UniProt P01834)
- METHOD DESCRIPTION: SPR; Biacore T200; h-5E5 Fab amine-coupled (~10 000 RU) on a CM7 chip; glycopeptides flowed at 6.25-100 µM, 20 µl/min; 25°C; HBS-EP (10 mM HEPES, 150 mM NaCl, 3 mM EDTA, 0.005% Tween 20 pH 7.4); steady-state analysis, three replicates
Ends that are not written are not given here. * marks the point of attachment. αGalNAc = CC(=O)N[C@@H]1[C@@H](O)[C@@H](O)[C@@H](CO)O[C@@H]1*
Reported pKd values are given for each entry in this list.
To interpret pKd, take it as minus log10 of a concentration measured in moles per litre.

>  <BINDER>
APGS(αGalNAc)T(αGalNAc)AP [doubly glycosylated Tn-MUC1 peptide APGS*T*AP]

>  <pKd>
4.22

$$$$

Here is another binder to look at.
Identify the reported pKd for the following entry. PAPGS(αGalNAc)T(αGalNAc)AP [doubly glycosylated Tn-MUC1 peptide PAPGS*T*AP]
4.39
